B1: TPR t1 (parent)
chain: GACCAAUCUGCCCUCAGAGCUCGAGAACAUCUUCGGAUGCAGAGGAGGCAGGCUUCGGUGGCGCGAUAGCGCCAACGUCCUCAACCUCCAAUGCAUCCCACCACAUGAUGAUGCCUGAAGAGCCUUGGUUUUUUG

Variants of: B1
protocol_summary: polymerase ribozyme fitness, log enrichment relative to wild type (log ratio); higher = more active; in vitro selection for triplet polymerase activity
Classification field. Basis: polymerase ribozyme fitness (log ratio). Definitions: band A: < -4; band B: ≥ -4 and < -3; band C: ≥ -3

>>> group_label("GACCAAUCUGCCCUCAGAGCUCGAGAACAUCUUCGGAUGCAGAGGAGGCAGGCUUGGGUGGCGCGAUAGCGCCAACGUUCUCAACCUCCAAUGCAUCCCACCACAUGAUGAUGCCUGAAGAGCCUUGGUUUUUUG")
"band C"
>>> group_label("GACCAAUCUGCCCUCAGAGCUAGAGAACAUCUUCGGAUGCAGAGGAGGCAAGCUUCGGUGGCGCGAUAGCCCCAACGUCCUCAACCUCCAAUGCAUCCCACCACAUGAUGCUGCCUGAAGAGCCUUGGUUUUUUG")
"band A"
>>> group_label("GACCAAUCUGCCGUCAGAGCUCGAGAACAUCUUCGGAUGCAGAGGAGGCAGGGUUCGGUGGCACGAUAGCGCCAACGUCCUCAACCUCCAAUGCAUCCCACCACAUGAUGAUGCCUGAAGAGCCUUGGUUUUUUG")
"band C"
>>> group_label("GACCAAUCUGCCCUCAGAGCUCGAGAACAUCUUCGGAUGCAGAGGAGGCAGGCUUCGGUGGCGCGAUAGCGCCAACGUCCUCAACCUCCAAUACAUCCCACCACAUGAUGAUGCCUCAAGAGCCUUGGUUUUUUG")
"band B"
>>> group_label("GACCAAUCUGCCCUCAGAGCUCGAGCACAUCUUCGGAUGCAGAGGAGGCAGGCUUCGGUCGCGCGAUAGCGCCAACGUCCUCAACCUCCAAUGCAUCCCACCACAUGAUGAUGCCUGAAGAGCCUUGGUUUUUUG")
"band A"
>>> group_label("GACCAAUCUGCCCUCAGAGCUCGAGAACAUCUUCGGAUGCCGAGGAGCCAGGCUUCGGUGGCGCGAUAGCGCCAACGGCCUCAACCUCCAAUGCAUCCCACCACAUGAUGGUGCCUGAAGAGCCUUGGUUUUUUG")
"band C"
>>> group_label("GACCAGUCUUCCCUCAGAGCUCGAGAACAUCUUCGGAUGCAGAGGAGGCAGGCUUAAAUGGCGCGAUAUCGCCAACGUCCUCAACUUCCAAUGCAUCCCACCACAUGAUGAUGCCUGAAGAGCCUUGGUUUUUUG")
"band C"
>>> group_label("GACCAAUCUGCCCUCAGAGCUCGAGAACAUCGUCGGAUGCAGAGGAGGCAGGCUUCGGUGGUGCGAUAGCGCCAACGUCCUCAACCUCCAAUGCAUCCCACCACUUGAUGAGGCCUGAAGAGCCUUGGUUUUUUG")
"band A"
>>> group_label("GACCAAUCUGCCCUCAGAGCUCGAGAACAUCUUCGGAUGCAGAGGCGGCAGGCUUCGGUGGCGCGAUAGCGCCAACGUCCUCAACUUCCAAUGCGUCCCACCACAUGAUGAUGGCUGAAGAGCCUUGGUUUUUUG")
"band B"
>>> group_label("GACCAAUCUGCCCUCAGAGCUCGAGAACAUCUUCGGAUGCAGAGGAGGCAGGCGUCGGUGGCGCGAUAGCUCCAACGUACUCAACCUCCAAUGCAUCCCACCACAUGAUGAUGCCUGAAGAGCCUUGGUUUUUUG")
"band A"
>>> group_label("GACCAAUCUGCCCUCAGAGCUCGAGAACAUCUUCGGAUGCAGAGGAGGCAGGCUUCGGUGGCGCGAUAGGGCCAACGUCCUCAACCUCCAAUACAUCCCACCACAUGAUGAUGCCUGAAGAGCCUUGGUUUUUUG")
"band A"
>>> group_label("GACCAAUCUACCCUUAGAGCUCGAGAACAUCUUCGGAUGCAGAGGAGGCAGGCUUCGGUGGCGCGAUAGCGCCAACGUCCUCAACCUCCAAUGCAUCCCACCACAUGAUGAUGCCUGAAGAGCCUUGGUUUUUUG")
"band C"
>>> group_label("GCCCAAUCUGCCCUCAGAGAUCGAGAACAUCUUCGGAUGCAGAGGAGGCAGGCUUCGGUGGCGCGAUAGCGCCAACGUUCUCAACCUCCAAUGCAUCCCACCACAUGAUGAUGCCUGAAGAUCCGUGGUUUUUUG")
"band B"
>>> group_label("GACCAAUCUGCCCUCAGAGCUCGAGAACAUCUUCGGAUGCAGAGGAGGCAGGCUUCGGUGGCGCGAUAGCGCUAACGUCCUCAACCUCCAAUGCAUCCCACCACAUGAUGAUGCCUGAAGAGCCAUGGUUUUUUG")
"band C"
>>> group_label("GACCAAUCUGCCCUCAGAGCUCGAGAAAAUCUUCGGAUGCAGAGGAGGCAGGCUUCGGUGGCGCGAUAGCGACAACGUCCUCAACCUCCAAUGCAUCCCACCACAUGAUGAUGCCUGAAGAGCCUUGGUUUUUUG")
"band B"
>>> group_label("GACCAAUCUGCCCUUAGAGCUCGAGAACAUCUUCGGUUGCAGAGGAGGCAGGCUUCGGUGGUGCGAUAGCGCCAACGUCCUCAACCUCCAAUGCAUCCCACCACAUGAUGAUGCCUGAAGAGCCUUGGUUUUUUG")
"band C"
>>> group_label("GACCAAUCUGCCCUCAGAGCUCGAGAACAUCUUCGGAUGCAGAGGAGGCAGGCUUCGGUGGCGCGAUAGAGCCAACGUCCUCAACCUCCAAUGCAUCCCACCACAUGACGAUGCCUGAAGAGCCUUGGUUUUUUG")
"band A"
>>> group_label("GACCAAUCUGCCCUCAGAGCUCGAGCACAUCUUCGGAUUCAGAGGAGGCAGGCUUCGGUGGCGCGAUAGCGCCAACGUCCUCAACCUCCAAUGCAUCCCACCACAUGAUGAUGCCUGAAGAGCGUUGGUUUUUUG")
"band A"
>>> group_label("GACCAAUCUGCCCUCAGAACUCGAGAACAUCUUCGGAUGCAGAGGAGGGAGGCUUCGGUGGCCCGAUAGCGCCAACGUCCUCAACCUCCAAUCCAUCCCACCACCUCAUGAUGCCUCAAGAGCCUUGGUUUUUUG")
"band A"
